biological target: human TLR9 (Homo sapiens); construct: HA; host or cells: 293XL-hTLR9-HA (HEK293); assay: HEK-TLR9 NF-κB-luciferase reporter, ODN2006 stimulation; assay type: cell-based; conditions: MOE-modified ASO at 100 nM; averaged NF-κB-Luciferase relative to ODN2006 condition
Sequence (Q9NR96 26-1032): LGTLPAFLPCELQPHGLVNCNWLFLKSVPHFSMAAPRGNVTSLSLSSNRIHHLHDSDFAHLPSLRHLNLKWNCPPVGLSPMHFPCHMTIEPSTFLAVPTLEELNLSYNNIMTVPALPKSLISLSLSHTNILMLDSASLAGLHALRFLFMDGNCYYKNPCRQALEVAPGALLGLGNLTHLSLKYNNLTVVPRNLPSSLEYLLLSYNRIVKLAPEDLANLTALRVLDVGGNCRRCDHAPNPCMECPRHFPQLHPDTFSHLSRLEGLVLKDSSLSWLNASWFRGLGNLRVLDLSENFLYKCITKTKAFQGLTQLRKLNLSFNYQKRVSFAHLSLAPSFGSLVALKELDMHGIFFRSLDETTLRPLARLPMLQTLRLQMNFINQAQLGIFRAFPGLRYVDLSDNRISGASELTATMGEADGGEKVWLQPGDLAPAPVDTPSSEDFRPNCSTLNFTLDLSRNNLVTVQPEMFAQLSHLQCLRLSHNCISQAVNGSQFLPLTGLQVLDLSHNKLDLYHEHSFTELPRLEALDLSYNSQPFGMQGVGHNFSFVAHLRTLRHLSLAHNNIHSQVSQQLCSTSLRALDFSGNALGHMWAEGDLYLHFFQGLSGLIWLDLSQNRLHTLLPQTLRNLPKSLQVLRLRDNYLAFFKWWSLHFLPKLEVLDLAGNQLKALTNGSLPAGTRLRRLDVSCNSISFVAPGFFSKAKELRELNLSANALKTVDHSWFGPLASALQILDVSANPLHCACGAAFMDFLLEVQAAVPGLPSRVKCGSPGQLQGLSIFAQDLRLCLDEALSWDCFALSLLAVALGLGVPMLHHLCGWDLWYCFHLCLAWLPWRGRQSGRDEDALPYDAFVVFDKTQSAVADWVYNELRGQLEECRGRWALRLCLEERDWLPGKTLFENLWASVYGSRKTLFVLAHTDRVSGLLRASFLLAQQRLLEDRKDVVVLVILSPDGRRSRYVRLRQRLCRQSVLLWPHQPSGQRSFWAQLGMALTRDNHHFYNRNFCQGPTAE
property_measured: TLR9 100 nM

Look up TLR9 100 nM: GCGTATTATAGCCGATTAAC (antisense; 2'-MOE modified, pattern not given here) [NC1 2′MOE]
0.460

Similarly, CGTGTCTGGAAGCTTCCTTT (antisense; 2'-MOE modified, pattern not given here) [CTNN2B-808 MOE] ?
0.568

Try this sequence next: TTGCCATGCTGGCTCGGACT (antisense; 2'-MOE modified, pattern not given here) [CAMSAP1-2584 MOE]
0.516

Now consider TGGCAGGCTCAGTGATGTCT (antisense; 2'-MOE modified, pattern not given here) [CTNN2B-1642 MOE] and answer again.
0.722

Repeat with GCGGAGGTCTTGGCTTCGTG (antisense; 2'-MOE modified, pattern not given here) [MB21D1-526 MOE]
0.682

Item: AGGTCTTGGCTTCGTGGAGC (antisense; 2'-MOE modified, pattern not given here) [MB21D1-522 MOE]
0.568

Request: GTCCAAGATCAGCAGTCTCA (antisense; 2'-MOE modified, pattern not given here) [CTNN2B-2341 MOE]
0.430

Do the same for CAATGTGATGGCCTCCCATC (antisense; 2'-MOE modified, pattern not given here) [HPRT-335 MOE] please
0.614

Same lookup for GAACCACGTCTGCTCTAACA (antisense; 2'-MOE modified, pattern not given here) [CAMSAP1-1635 MOE] , please.
0.588

Similarly, GTCTTGGCTTCGTGGAGCAG (antisense; 2'-MOE modified, pattern not given here) [MB21D1-520 MOE] ?
0.709

Field entry: ATGTCCCCTGTTGACTGGTC (antisense; 2'-MOE modified, pattern not given here) [HPRT-489 MOE]
0.968

Same again, this time with GCCGCTTTTCTGTCTGGTTC (antisense; 2'-MOE modified, pattern not given here) [CTNN2B-311 MOE]
0.684

Subsequent entry: GGAGGTCTTGGCTTCGTGGA (antisense; 2'-MOE modified, pattern not given here) [MB21D1-524 MOE]
0.466

Here is the next sequence: GCCCATCCATGAGGTCCTGG (antisense; 2'-MOE modified, pattern not given here) [CTNN2B-2545 MOE]
0.324

* * *

target: human TLR9 (Homo sapiens); construct: HA; host or cells: 293XL-hTLR9-HA (HEK293); assay: HEK-TLR9 NF-κB-luciferase reporter, ODN2006 stimulation; assay type: cell-based; details: MOE-modified ASO at 100 nM; averaged NF-κB-Luciferase relative to ODN2006 condition
Would you kindly list TLR9 100 nM for each of these sequences?
Would you mind answering with just the numeric figure?

Fill blank: measured TLR9 100 nM of the sequence CGGCATCCACCACGTCGTCC (antisense; 2'-MOE modified, pattern not given here) [EGFR-3267 MOE] is ____.
0.449

// query: TGTCTTCATCGGCCCTGCCT (antisense; 2'-MOE modified, pattern not given here) [CAMSAP1-2112 MOE]
0.697

Also need CTTACTTTCCGAGGTGTCCA (antisense; 2'-MOE modified, pattern not given here) [CAMSAP1-1739 MOE] , thanks.
0.647

GGCATCCACCACGTCGTCCA (antisense; 2'-MOE modified, pattern not given here) [EGFR-3266 MOE] , same question.
0.742
